Target Entity: Streptavidin (Streptomyces avidinii)
Assay Protocol: compounds binding control protein streptavidin – biophysical, small-molecule microarray, 635/667 nm fluorescence, artefact control for SMM compound annotation, primary screen (AID 1147);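 note: signal reflects streptavidin binding to arrayed compounds as a control protein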
Conditions: higher = more signal
If the reported composite z-score equals or exceeds 0.4, assign MET. If not, assign NOT MET.

CN1C(=O)C2C(C1=O)C1C=C(c3ccc(CO)cc3)C2C(C2CC2)N1C (stereo unspecified)	NOT MET
COc1ccc([Si](C)(C)[C@H]2[C@H](CC(=O)N3Cc4ccccc4C[C@H]3CO)O[C@@]3(C(=O)N(C)c4c(Br)cc(C)cc43)[C@@H]2C)cc1	NOT MET
CN(C)CCCC[C@@H]1NC(=O)[C@@H]2C[C@H](C(=O)NCCCCCN)[C@H](c3cccc(OCCO)c3)N2C1=O	MET
NC(=O)N1C(=O)C2C(C1=O)C1C=C(CCCO)C2C(c2ccc(CN3CCCC3)cc2)N1Cc1sc2ccccc2c1Cl (stereo unspecified)	MET
COc1ccc([Si](C)(C)[C@@H]2[C@@H](CC(=O)N3CCC[C@H]3CO)O[C@]3(C(=O)N(Cc4cccc(N5CCCCC5=O)c4)c4ccccc43)[C@H]2C)cc1	NOT MET

composite z-score >= 0.4 for `COC(=O)[C@@]1(Cc2ccccc2)[C@H]2c3cc(C(=O)N(C)C)n(CCO)c3C[C@H]2CN1C(=O)c1ccccc1` ?
MET

Also CC1CC/C=C\[C@H]2OC34C=CCN(Cn5nnc6ccccc65)C(=O)[C@H]3N(CCCCCCO)C(=O)[C@@H]4C2C(=O)O1 (stereo partly specified) ?
NOT MET

Also `COC(=O)[C@]1(CCC(=O)OC(C)(C)C)N=C(c2ccc(OCCCO)cc2)O[C@@H]1c1ccccc1N=[N+]=[N-]` ?
NOT MET

Also CC(C)(C)OC(=O)CC[C@]1(C(=O)NCC(O)CO)N=C(c2ccc(OCCCO)cc2)O[C@H]1c1ccccc1N=[N+]=[N-] (stereo partly specified) ?
MET

Also `O=C(NCc1ccccc1)[C@@H]1c2ccccc2C(=O)N(Cc2cc(C(F)(F)F)cc(C(F)(F)F)c2)[C@H]1c1ccc(CO)cc1` ?
MET

Also C=CCC(OC(C)=O)[C@@H]1[C@@H](N(Cc2cc3ccccc3o2)C(=O)Cc2ccc(OC)cc2)c2cc(OCCCO)ccc2N1C(=O)c1ccc2ccccc2n1 (stereo partly specified) ?
NOT MET

###

Target Entity: E3 ubiquitin-protein ligase XIAP (Homo sapiens) (UniProt P98170)
Sequence (P98170 whole entry, looked up): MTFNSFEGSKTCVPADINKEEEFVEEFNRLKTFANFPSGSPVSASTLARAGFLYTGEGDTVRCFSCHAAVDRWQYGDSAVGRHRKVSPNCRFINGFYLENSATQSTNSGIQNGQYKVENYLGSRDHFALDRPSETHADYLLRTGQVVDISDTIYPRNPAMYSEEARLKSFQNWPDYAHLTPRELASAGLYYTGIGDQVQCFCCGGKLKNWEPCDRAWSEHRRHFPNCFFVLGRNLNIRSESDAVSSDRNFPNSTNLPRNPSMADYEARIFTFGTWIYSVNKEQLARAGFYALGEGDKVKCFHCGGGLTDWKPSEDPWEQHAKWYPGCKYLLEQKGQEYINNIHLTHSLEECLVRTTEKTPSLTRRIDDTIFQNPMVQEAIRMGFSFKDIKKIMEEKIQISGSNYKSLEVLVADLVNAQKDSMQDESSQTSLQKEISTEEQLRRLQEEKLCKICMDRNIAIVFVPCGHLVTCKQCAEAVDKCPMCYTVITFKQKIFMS
Assay Protocol: small molecules binding XIAP protein – biophysical, small-molecule microarray, fluorescence 635 nm, primary screen (AID 1181);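 note: score merges 667 nm emission and signal to noise over triplicate slides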
Conditions: higher = more signal
Measured Attribute: composite z-score
Reply with just the number.

Answered examples (6):
COc1ccc([Si](C)(C)[C@H]2[C@H](CC(=O)N3CCC[C@H]3CO)O[C@@]3(C(=O)N(Cc4ccc(N5CCCCC5=O)cc4)c4ccccc43)[C@@H]2C)cc1	0.197
COc1ccc(NN2C(C(O)c3ccc(I)cc3)C=CC3C(=O)N(C4CCCCC4)C(=O)C32)cc1 (configuration not stated)	0.144
O=C(NC1CC1)[C@@H]1c2ccccc2C(=O)N(CC23CC4CC(CC(C4)C2)C3)[C@H]1c1ccc(CO)cc1	0.141
COc1cc(C(O)C2C=CC3C(=O)N(c4ccccc4)C(=O)C3N2Nc2ccccc2F)cc(OC)c1OC (configuration not stated)	0.081
CCOC(=O)C[C@H]1[C@H](OC(=O)Cc2ccc3c(c2)OCO3)[C@@H](NC(=O)Cc2ccc(OC)cc2)c2cc(OCCCO)ccc2N1C(=O)Cc1ccc(OC)cc1	-0.207
CCCCCC1=C2CNC(CC(C)C)(C(=O)OC)C=C2C(C)C1=O (configuration not stated)	0.0907

Consider the record given below.
Give its composite z-score value. Item: `COc1ccc([Si](C)(C)[C@@H]2[C@@H](CC(=O)N(CCO)Cc3ccccc3)O[C@]3(C(=O)N(Cc4ccc(N5C(=O)c6cccc7cccc5c67)cc4)c4ccccc43)[C@H]2C)cc1`
0.237

###

Assay Protocol: resazurin metabolic signal in HepG2 cells – cell-based, resazurin fluorescence, 24 h, PK04 Diversity Set, profiling panel (AID 1172); note: test concentration not given here
Conditions: HepG2 viability, higher = more signal
Lab note: compare z-score with 0.2, writing t if less and f if equal or more.

Example entries begin here.
NCCCCCCNC(=O)[C@@H]1C[C@@H]2C(=O)N3CCC[C@H]3C(=O)N2[C@@H]1c1cccc(OCCO)c1	t
COCCCNC(=O)[C@@]1(Sc2ccc(C)cc2)CC(=O)N(Cc2ccccc2C(F)(F)F)[C@@H]1c1ccc(CO)cc1I	t
CN(C)CCCCNC(=O)[C@H]1C[C@H]2C(=O)NCC(=O)N2[C@H]1c1ccc(O)cc1	f
CCCC=C(CCC)[C@@H](NC(=O)c1ccc(C(F)(F)F)cc1)c1ccc(C(F)(F)F)cc1	f
NC(=O)NCC#Cc1ccc2c(c1)[C@]1(C(=O)N2)[C@H](c2ccc(OCCO)cc2)N2[C@H](c3ccccc3)[C@H](c3ccccc3)OC(=O)[C@H]2[C@@H]1C(=O)O	t

Threshold test, z-score < 0.2: `COc1ccc([Si](C)(C)[C@@H]2[C@@H](CC(=O)N3CCC[C@H]3CO)O[C@]3(C(=O)N(Cc4ccc(N5CCOC5=O)cc4)c4ccccc43)[C@H]2C)cc1`
t

Also C=CCC(OC(C)=O)[C@@H]1[C@@H](N(Cc2cccc3ccccc23)C(=O)Cc2ccc(OC)cc2)c2cc(OCCCO)ccc2N1C(=O)c1ccc2ccccc2c1 (some centres not stated) ?
f

###

Target Entity: Fibroblast growth factor 2 (Homo sapiens)
Assay Protocol: basic fibroblast growth factor binding to printed compounds – biochemical, small-molecule microarray, 635/667 nm fluorescence, primary screen (AID 1133)
Conditions: FGF2, fluorescence 635/667, higher = more signal
If the reported composite z-score equals or exceeds 1, assign 1.0. If not, assign 0.0.

Example entries begin here.
COc1ccc([Si](C)(C)[C@H]2[C@H](CCO)O[C@@]3(C(=O)N(Cc4cccc(N5C(=O)c6ccccc6Oc6ccccc65)c4)c4ccccc43)[C@@H]2C)cc1	0.0
C=CCC(OC(C)=O)[C@@H]1[C@@H](N(Cc2cccc3ccccc23)C(=O)Cc2ccc(OC)cc2)c2cc(OCCCO)ccc2N1C(=O)Cc1ccc2ccccc2c1 (stereo partly specified)	0.0
CC(C)[Si](C#CCCc1ccccc1)(O[C@H](c1ccccc1)c1cn(Cc2ccccc2)nn1)C(C)C	0.0

composite z-score >= 1 for `COC(=O)C(CC#Cc1ccc2c(c1)[C@]1(C(=O)N2)[C@H](C(=O)N2CCc3cc(OC)c(OC)cc3C2)[C@H]2C(=O)O[C@H](c3ccccc3)[C@H](c3ccccc3)N2[C@@H]1c1ccccc1OCCO)C(=O)OC` ?
1.0

Also `C=CC[C@@]12N=C(c3ccc(OCCCO)cc3)O[C@@H]1c1ccccc1N(CCC)C2=O` ?
1.0

Also NC(=O)N1C(=O)C2C(C1=O)C1C=C(CCCO)C2C(c2ccc(CN3CCCC3)cc2)N1Cc1cc2c(cc1Br)OCO2 (stereo unspecified) ?
1.0

###

Assay Protocol: growth of efflux-deficient E. coli DRC39 – strain DRC39, OD650, 48 h, E. coli filamentation inducers, primary screen (AID 1179);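 note: screen aims at cell division blockers that make cells filament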
Conditions: E. coli DRC39 delta-acrAB growth, higher = more signal, called active from +8 up or from −8 down
If the reported z-score equals or exceeds -0.003, assign True. If not, assign False.

CCOc1cc(C(O)C2C=CC3C(=O)N(c4ccccc4)C(=O)C3N2Nc2ccccc2F)ccc1O (stereo not drawn)	False
CCCc1cc2c(n1CCc1ccc(Cl)cc1)C(C)C1CN(C(=O)c3ccccc3)C(C)(C(=O)OC)C21 (stereo not drawn)	False
CN1C(=O)C2C(C1=O)C1C=C(CCCO)C2C(C2CC2)N1Cc1cccc(OC(F)(F)F)c1 (stereo not drawn)	False
C=CCC(OC(C)=O)[C@@H]1[C@@H](N(Cc2cc3ccccc3o2)C(=O)Cc2ccc(OC)cc2)c2cc(OCCCO)ccc2N1C(=O)c1ccc2ccccc2n1 (stereo partly drawn)	True

z-score >= -0.003 for `COCCOC(=O)N1C(=O)[C@@]2(c3cc(C#CCNC(N)=O)ccc31)[C@H](C(=O)Nc1nc3ccccc3s1)[C@H]1C(=O)O[C@H](c3ccccc3)[C@H](c3ccccc3)N1[C@@H]2c1ccccc1OCCO` ?
True

Also `CCCN1C(=O)[C@]2(CCC(=O)OC(C)(C)C)N=C(c3ccc(OCCCO)cc3)O[C@@H]2c2ccccc21` ?
True

Also `O=C1[C@H]2C=C(I)[C@H](C[C@@H]2OCCCCCCO)[C@@]12CO2` ?
False

###

Assay Protocol: resazurin metabolic signal in HepG2 cells – cell-based, resazurin fluorescence, 24 h, PK04 Diversity Set, profiling panel (AID 1172); note: test concentration not given here
Conditions: HepG2 viability, higher = more signal
Listed below: z-score values for each entry.
Reply with just the number.

Answered examples (3):
COC(=O)C(CC#Cc1ccc2c(c1)[C@]1(C(=O)N2)[C@H](c2ccc(OCCO)cc2)N2[C@H](c3ccccc3)[C@H](c3ccccc3)OC(=O)[C@H]2[C@@H]1C(=O)N1CCCCCCC1)C(=O)OC	-0.198
COc1cc(OC)c(C(O)C2C=CC3C(=O)N(c4ccccc4)C(=O)C3N2Nc2ccc(C(C)C)cc2)cc1Br (centres undefined)	0.092
COCCOC(=O)N1C(=O)[C@@]2(c3cc(C#CCC(C(=O)OC)C(=O)OC)ccc31)[C@H](C(N)=O)[C@H]1C(=O)O[C@H](c3ccccc3)[C@H](c3ccccc3)N1[C@@H]2c1ccc(O)cc1	-0.0776

Give its z-score value. Item: `[N-]=[N+]=Nc1ccccc1C[C@]1(C(=O)N2CCOCC2)N=C(c2ccc(OCCCO)cc2)O[C@H]1c1ccccc1N=[N+]=[N-]`
-1.37

Also [N-]=[N+]=Nc1ccccc1C[C@@]1(C(=O)NCC(O)CO)N=C(c2ccc(OCCCO)cc2)O[C@@H]1c1ccccc1 (some centres undefined) ?
0.559
